I'd appreciate it if you could supply pEC50 on the activation of LGR7 values for the items below.
Target: LGR7 (Homo sapiens, UniProt Q9HBX9)
Construct: HEK293T cells stably expressing recombinant LGR7 or LGR8; expressed in transfected cells
Sequence (Q9HBX9 1-757): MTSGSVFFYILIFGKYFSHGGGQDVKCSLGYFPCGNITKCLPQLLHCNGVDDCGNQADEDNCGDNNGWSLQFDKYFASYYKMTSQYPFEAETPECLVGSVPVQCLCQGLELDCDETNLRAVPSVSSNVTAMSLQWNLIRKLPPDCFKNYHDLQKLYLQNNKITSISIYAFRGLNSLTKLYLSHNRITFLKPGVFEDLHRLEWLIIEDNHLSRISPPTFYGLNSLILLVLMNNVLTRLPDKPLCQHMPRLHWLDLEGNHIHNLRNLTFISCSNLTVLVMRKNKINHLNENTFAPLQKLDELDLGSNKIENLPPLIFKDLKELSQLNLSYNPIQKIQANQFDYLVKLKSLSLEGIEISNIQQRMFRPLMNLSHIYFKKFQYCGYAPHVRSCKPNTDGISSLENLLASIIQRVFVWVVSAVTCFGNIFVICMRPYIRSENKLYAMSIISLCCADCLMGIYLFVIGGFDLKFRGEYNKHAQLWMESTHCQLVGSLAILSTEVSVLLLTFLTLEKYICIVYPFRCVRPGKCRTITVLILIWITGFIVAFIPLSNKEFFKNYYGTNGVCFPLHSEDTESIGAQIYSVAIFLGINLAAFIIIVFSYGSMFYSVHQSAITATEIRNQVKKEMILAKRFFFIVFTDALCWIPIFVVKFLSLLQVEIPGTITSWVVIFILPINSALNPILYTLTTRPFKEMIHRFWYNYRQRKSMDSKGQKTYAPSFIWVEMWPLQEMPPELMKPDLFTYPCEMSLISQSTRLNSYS
Experiment: Receptor-activation analysis: cAMP production in LGR7-expressing HEK293T cells
Format: cell-based
Details: HEK293T cells stably expressing LGR7, mean ± S.E., ND = pEC50 not measurable
Description: The bioactivity of relaxin family peptides was determined based on the stimulation of adenylate cyclase activity in HEK293T cells stably expressing recombinant LGR7 or LGR8. […] Twelve hours after treatment, the culture was reacted with acetic anhydride/triethylamine, and total cAMP content in cell lysates was measured using a specific cAMP radioimmunoassay. […]
Where no end group is shown, it is not given here.
Answers are plain numbers.

SUBSTANCE	pEC50 on the activation of LGR7
WT RLN2 (His2): recombinant wild type RLN2 with N-terminal Myc tag and His6 tag at the N or C terminus of the B chain (position 2) (chain 1 SWMEEVIKLCGRELVRAQIAICGMSTWS; chain 2 QLYSALANKCCHVGCTKRSLARFC; not fully specified; ends and bridges not checked; also: N-terminal Myc tag)	8.77
WT RLN2 (His1): recombinant wild type RLN2 with N-terminal Myc tag and His6 tag at the N or C terminus of the B chain (position 1) (chain 1 SWMEEVIKLCGRELVRAQIAICGMSTWS; chain 2 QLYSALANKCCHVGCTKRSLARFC; not fully specified; ends and bridges not checked; also: N-terminal Myc tag)	8.66

Report pEC50 on the activation of LGR7 for every entry below.
1. RLN2 C-104: tagged RLN2 derived from the construct containing a 104-amino acid C domain sequence (chain 1 SWMEEVIKLCGRELVRAQIAICGMSTWSHHHHHH; chain 2 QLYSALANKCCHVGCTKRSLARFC; not fully specified; ends and bridges not checked)
2. RLN2 C-18: tagged RLN2 from construct with B and A chains linked by a truncated C-domain of 18 amino acids (chain 1 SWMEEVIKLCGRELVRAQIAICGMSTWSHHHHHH; chain 2 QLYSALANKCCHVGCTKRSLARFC; not fully specified; ends and bridges not checked)
3. RLN2 C-28: tagged RLN2 from construct with B and A chains linked by a truncated C-domain of 28 amino acids (chain 1 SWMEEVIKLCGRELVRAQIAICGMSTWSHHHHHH; chain 2 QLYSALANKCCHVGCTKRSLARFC; not fully specified; ends and bridges not checked)

1: 8.74; 2: 8.74; 3: 8.66
